B1: Hairpin Ribozyme (parent)
chain: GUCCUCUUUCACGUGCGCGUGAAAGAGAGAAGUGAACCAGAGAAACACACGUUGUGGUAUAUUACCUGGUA

- Variants of: B1
- assay-text: self-cleavage, relative activity (ratio to wild type); higher = more cleavage; co-transcriptional
Cut-off 0.2 on self-cleavage, inclusive. At or above means condition met; below means condition not met.

## Task Hello, I need to know if U7A G13A has measured self-cleavage not below 0.2. Thanks!
## Result condition met

## Task Another variant to look at: C48G A59C
## Result condition not met

## Task Another variant to look at: U33C C37U
## Result condition not met

## Task Another variant to look at: U58A A71C
## Result condition met

## Task Another variant to look at: U55C U67G
## Result condition not met

## Task Another variant to look at: C12A C16G
## Result condition met

## Task Another variant to look at: C37U G51U
## Result condition met

## Task Another variant to look at: A59C U67G
## Result condition met

## Task Another variant to look at: U9C U20G
## Result condition met

## Task Another variant to look at: C37A G40A
## Result condition not met

Next:
## Task Hello, I need to know if A26U G54A has measured self-cleavage not below 0.2. Thanks!
## Result condition met

## Task Another variant to look at: U9A G40A
## Result condition met
